These entries and their values trace back to PubChem BioAssay AID1963445.

Tested on: MCF7 complex spheroid growth, % test/control
Test: Anticancer human tumor MCF7 cell line growth inhibition [Asc];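 also: spheroids exposed to compounds for 7 days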;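 as to viability, T/C: 100% = DMSO vehicle control wells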
Details: second compound 0.00949 µM; first compound 0.00316 µM; stronger effect = lower value
Description: Multicellular complex tumor spheroid response to apoptosis pathway targeting inhibitors Alrizomadlin, Pelcitoclax, and Dasminapant in combination with a variety of drugs and investigational agents in selected tumor cell lines […] Compounds. […] If the clinical Cmax for an agent had not been determined, the highest concentration tested was 10 microM. […]
Kindly supply the reported viability, T/C values for the records listed here.
Your answer should be a plain number; it is taken to be in %.

# viability, T/C lookup, item Cn1ncnc1[C@H]1c2n[nH]c(=O)c3cc(F)cc(c23)N[C@@H]1c1ccc(F)cc1 + CCN1C(C(=O)NC23CCC(C(=O)O)(CC2)CC3)C(c2cccc(Cl)c2F)C2(C(=O)Nc3cc(Cl)ccc32)C12CCCCC2
116

# viability, T/C lookup, item NC1CCC(NC2CC2c2ccccc2)CC1 (stereo unspecified) + CCN1C(C(=O)NC23CCC(C(=O)O)(CC2)CC3)C(c2cccc(Cl)c2F)C2(C(=O)Nc3cc(Cl)ccc32)C12CCCCC2
131

# viability, T/C lookup, item O=C(c1ccc(F)c(F)c1Nc1ccc(I)cc1F)N1CC(O)([C@@H]2CCCCN2)C1 + CCN1C(C(=O)NC23CCC(C(=O)O)(CC2)CC3)C(c2cccc(Cl)c2F)C2(C(=O)Nc3cc(Cl)ccc32)C12CCCCC2
104

# viability, T/C lookup, item CCN1CCN(Cc2ccc(Nc3ncc(F)c(-c4cc(F)c5nc(C)n(C(C)C)c5c4)n3)nc2)CC1 + CCN1C(C(=O)NC23CCC(C(=O)O)(CC2)CC3)C(c2cccc(Cl)c2F)C2(C(=O)Nc3cc(Cl)ccc32)C12CCCCC2
99

# viability, T/C lookup, item CNC(C)C(=O)NC1CN(S(=O)(=O)c2cccc(S(=O)(=O)N3CCC4CCC(C(=O)NC(c5ccccc5)c5ccccc5)N4C(=O)C(NC(=O)C(C)NC)C3)c2)CCC2CCC(C(=O)NC(c3ccccc3)c3ccccc3)N2C1=O (stereo unspecified) + CCN1C(C(=O)NC23CCC(C(=O)O)(CC2)CC3)C(c2cccc(Cl)c2F)C2(C(=O)Nc3cc(Cl)ccc32)C12CCCCC2
69.8

# viability, T/C lookup, item COc1c(OCCCN2CCOCC2)ccc2c3n(c(=NC(=O)c4cnc(N)nc4)nc12)CCN3 + CCN1C(C(=O)NC23CCC(C(=O)O)(CC2)CC3)C(c2cccc(Cl)c2F)C2(C(=O)Nc3cc(Cl)ccc32)C12CCCCC2
98.8

----------
Kindly supply the reported IC50 values for the records listed here.
tested on: MCF7 complex spheroid growth, % test/control; assay: Anticancer human tumor MCF7 cell line growth inhibition [Asc]; conditions: curve of first compound; second compound 0.3 µM;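 also: spheroids exposed to compounds for 7 days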

# IC50 lookup, item O=C(c1cc(Cc2n[nH]c(=O)c3ccccc23)ccc1F)N1CCN(C(=O)C2CC2)CC1 + CCN1C(C(=O)NC23CCC(C(=O)O)(CC2)CC3)C(c2cccc(Cl)c2F)C2(C(=O)Nc3cc(Cl)ccc32)C12CCCCC2
< 31.6 nM

# IC50 lookup, item Cn1ncnc1[C@H]1c2n[nH]c(=O)c3cc(F)cc(c23)N[C@@H]1c1ccc(F)cc1 + CCN1C(C(=O)NC23CCC(C(=O)O)(CC2)CC3)C(c2cccc(Cl)c2F)C2(C(=O)Nc3cc(Cl)ccc32)C12CCCCC2
< 0.316 nM

# IC50 lookup, item C#Cc1c(F)ccc2cc(O)cc(-c3ncc4c(N5CC6CCC(C5)N6)nc(OCC56CCCN5CC(F)C6)nc4c3F)c12 (centres undefined) + CCN1C(C(=O)NC23CCC(C(=O)O)(CC2)CC3)C(c2cccc(Cl)c2F)C2(C(=O)Nc3cc(Cl)ccc32)C12CCCCC2
< 31.6 nM

# IC50 lookup, item C=C(F)C(=O)N1CCN(c2nc(OCC3CCCN3C)nc3c2CCN(c2cccc4cccc(Cl)c24)C3)CC1CC#N (centres undefined) + CCN1C(C(=O)NC23CCC(C(=O)O)(CC2)CC3)C(c2cccc(Cl)c2F)C2(C(=O)Nc3cc(Cl)ccc32)C12CCCCC2
< 31.6 nM

----------
Kindly supply the reported viability, T/C values for the records listed here.
system: MCF7 complex spheroid growth, % test/control; experiment: Anticancer human tumor MCF7 cell line growth inhibition [Asc]; conditions: second compound 0.316 µM; first compound 0.1 µM; stronger effect = lower value;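 also: spheroids exposed to compounds for 7 days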;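 as to viability, T/C: 100% = DMSO vehicle control wells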
Your answer should be a plain number; it is taken to be in %.

# viability, T/C lookup, item CNC(C)C(=O)NC1CN(S(=O)(=O)c2cccc(S(=O)(=O)N3CCC4CCC(C(=O)NC(c5ccccc5)c5ccccc5)N4C(=O)C(NC(=O)C(C)NC)C3)c2)CCC2CCC(C(=O)NC(c3ccccc3)c3ccccc3)N2C1=O (stereo unspecified) + Cc1c(S(C)(=O)=O)c(-c2cc(F)cc(N3CCN(c4ccc(NS(=O)(=O)c5ccc(NC(CCN6CCC(C(=O)OCCCP(=O)(O)O)CC6)CSc6ccccc6)c(S(=O)(=O)C(F)(F)F)c5)cc4)CC3)c2)c(-c2ccc(Cl)cc2)n1C(C)C
19

# viability, T/C lookup, item C=CC(=O)N1CCN(c2nc(=O)n(-c3c(C)ccnc3C(C)C)c3nc(-c4c(O)cccc4F)c(F)cc23)C(C)C1 (stereo unspecified) + Cc1c(S(C)(=O)=O)c(-c2cc(F)cc(N3CCN(c4ccc(NS(=O)(=O)c5ccc(NC(CCN6CCC(C(=O)OCCCP(=O)(O)O)CC6)CSc6ccccc6)c(S(=O)(=O)C(F)(F)F)c5)cc4)CC3)c2)c(-c2ccc(Cl)cc2)n1C(C)C
92.7

# viability, T/C lookup, item O=C(c1cc(Cc2n[nH]c(=O)c3ccccc23)ccc1F)N1CCN(C(=O)C2CC2)CC1 + CNC(C)C(=O)NC1CN(S(=O)(=O)c2cccc(S(=O)(=O)N3CCC4CCC(C(=O)NC(c5ccccc5)c5ccccc5)N4C(=O)C(NC(=O)C(C)NC)C3)c2)CCC2CCC(C(=O)NC(c3ccccc3)c3ccccc3)N2C1=O
12.3

# viability, T/C lookup, item Cn1ncnc1[C@H]1c2n[nH]c(=O)c3cc(F)cc(c23)N[C@@H]1c1ccc(F)cc1 + CNC(C)C(=O)NC1CN(S(=O)(=O)c2cccc(S(=O)(=O)N3CCC4CCC(C(=O)NC(c5ccccc5)c5ccccc5)N4C(=O)C(NC(=O)C(C)NC)C3)c2)CCC2CCC(C(=O)NC(c3ccccc3)c3ccccc3)N2C1=O
12.8

# viability, T/C lookup, item COc1c(OCCCN2CCOCC2)ccc2c3n(c(=NC(=O)c4cnc(N)nc4)nc12)CCN3 + Cc1c(S(C)(=O)=O)c(-c2cc(F)cc(N3CCN(c4ccc(NS(=O)(=O)c5ccc(NC(CCN6CCC(C(=O)OCCCP(=O)(O)O)CC6)CSc6ccccc6)c(S(=O)(=O)C(F)(F)F)c5)cc4)CC3)c2)c(-c2ccc(Cl)cc2)n1C(C)C
30.3

# viability, T/C lookup, item CCN1CCN(Cc2ccc(Nc3ncc(F)c(-c4cc(F)c5nc(C)n(C(C)C)c5c4)n3)nc2)CC1 + CNC(C)C(=O)NC1CN(S(=O)(=O)c2cccc(S(=O)(=O)N3CCC4CCC(C(=O)NC(c5ccccc5)c5ccccc5)N4C(=O)C(NC(=O)C(C)NC)C3)c2)CCC2CCC(C(=O)NC(c3ccccc3)c3ccccc3)N2C1=O
11.2

----------
Kindly supply the reported viability, T/C values for the records listed here.
tested on: MCF7 complex spheroid growth, % test/control; assay: Anticancer human tumor MCF7 cell line growth inhibition [Asc]; settings: second compound 0.316 µM; first compound 0.01 µM; stronger effect = lower value;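 also: spheroids exposed to compounds for 7 days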;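 as to viability, T/C: 100% = DMSO vehicle control wells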
Your answer should be a plain number; it is taken to be in %.

# viability, T/C lookup, item COc1c(OCCCN2CCOCC2)ccc2c3n(c(=NC(=O)c4cnc(N)nc4)nc12)CCN3 + Cc1c(S(C)(=O)=O)c(-c2cc(F)cc(N3CCN(c4ccc(NS(=O)(=O)c5ccc(NC(CCN6CCC(C(=O)OCCCP(=O)(O)O)CC6)CSc6ccccc6)c(S(=O)(=O)C(F)(F)F)c5)cc4)CC3)c2)c(-c2ccc(Cl)cc2)n1C(C)C
72.2

# viability, T/C lookup, item Cn1ncnc1[C@H]1c2n[nH]c(=O)c3cc(F)cc(c23)N[C@@H]1c1ccc(F)cc1 + Cc1c(S(C)(=O)=O)c(-c2cc(F)cc(N3CCN(c4ccc(NS(=O)(=O)c5ccc(NC(CCN6CCC(C(=O)OCCCP(=O)(O)O)CC6)CSc6ccccc6)c(S(=O)(=O)C(F)(F)F)c5)cc4)CC3)c2)c(-c2ccc(Cl)cc2)n1C(C)C
54.2

# viability, T/C lookup, item CNC(C)C(=O)NC1CN(S(=O)(=O)c2cccc(S(=O)(=O)N3CCC4CCC(C(=O)NC(c5ccccc5)c5ccccc5)N4C(=O)C(NC(=O)C(C)NC)C3)c2)CCC2CCC(C(=O)NC(c3ccccc3)c3ccccc3)N2C1=O (stereo not drawn) + Cc1c(S(C)(=O)=O)c(-c2cc(F)cc(N3CCN(c4ccc(NS(=O)(=O)c5ccc(NC(CCN6CCC(C(=O)OCCCP(=O)(O)O)CC6)CSc6ccccc6)c(S(=O)(=O)C(F)(F)F)c5)cc4)CC3)c2)c(-c2ccc(Cl)cc2)n1C(C)C
25.1
